System: M. tuberculosis H37Rv
Format: cell-based, Mycobacterium tuberculosis
# reported Mutation frequency; entries follow
Quantity: Mutation frequency

• COc1cc([C@](O)(CCN(C)C)[C@@H](c2cc3cc(Br)ccc3nc2OC)c2ccnc(OC)c2OC)cc(OC)n1 = 3.00 × 10^−8
• COc1cc([C@](O)(CCN(C)C)[C@@H](c2cc3cc(Br)ccc3nc2OC)c2cc(OC)nc(OC)c2OC)cc(OC)n1 = 4.23 × 10^−9
• COc1cc([C@](O)(CCN(C)C)[C@@H](c2cc3cc(Br)ccc3nc2OC)c2cccc3c2OCCO3)cc(OC)n1 = 6.36 × 10^−9
• COc1cc([C@](O)(CCN(C)C)[C@H](c2cc(OC(C)C)cnc2OC)c2cc3cc(Br)ccc3nc2OC)cc(OC)n1 = 2.54 × 10^−8
